# study_target: T1, recombinant canine Nerve Growth Factor (Canis lupus familiaris NGF) (canine (Canis lupus familiaris), UniProt Q29074 110-229 (pig entry), limits assumed)
# T1 construct: also called canine NGF; Dog NGF
# T1 chain: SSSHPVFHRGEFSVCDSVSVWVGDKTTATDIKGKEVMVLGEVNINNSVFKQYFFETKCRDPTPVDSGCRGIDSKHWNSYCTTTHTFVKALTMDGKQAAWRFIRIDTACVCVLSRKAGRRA
# assay_info: SPR, 1:1 binding fit, canine NGF
binders and their reported koff
experimental_endpoint: koff (s⁻¹)

# binder, experimental_endpoint, display_unit, quantitative_result
data = [
    ("SSM-13 (LC SSMwtLCR53S, HC SSMwtHCG31Q) (antibody, V domains shown) VH: EVQLVESGGDLARPGGSLKLSCVVSGFSLIQYDINWVRQAPGKGLQWVTMIWGDGTTDYNSALKSRFTVSRDNAMNTVYLQMNSLRVEDTAVYYCARGGYYYGTSYYFDYWGQGTLVTVSS VL: DIVMTQTPLSLSVSPGETASISCRASQDISNHLNWFRQKPGQSPQRLIYYISSFHSGVPDRFSGSGSGTDFTLRISRVEADDTGVYYCQQSKTLPYTFGAGTKLEIK", "koff", "s⁻¹", 0.00241),
    ("SSM-19 (LC SSMwtLCR53S, HC SSMwtHCD54T, L63I) (antibody, V domains shown) VH: EVQLVESGGDLARPGGSLKLSCVVSGFSLIGYDINWVRQAPGKGLQWVTMIWGTGTTDYNSAIKSRFTVSRDNAMNTVYLQMNSLRVEDTAVYYCARGGYYYGTSYYFDYWGQGTLVTVSS VL: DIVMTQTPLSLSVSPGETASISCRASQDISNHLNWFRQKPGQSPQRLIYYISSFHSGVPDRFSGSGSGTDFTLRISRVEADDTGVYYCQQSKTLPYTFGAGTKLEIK", "koff", "s⁻¹", 0.00164),
]

Values were extracted from patent US20150147318A1.
